Test system: NCI-H322M (Lung Adenocarcinoma);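 also: after 72 h of two-drug dosing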
Assay: Bliss excess, mean over the matrix (fraction); higher = more synergy
readoutType: Bliss excess

[ask] Write down the reported Bliss excess of CC(=O)c1c(C)c2cnc(Nc3ccc(N4CCNCC4)cn3)nc2n(C2CCCC2)c1=O [Palbociclib] + Cc1c2c(nn1C)CSCc1cc(n(C)n1)CSc1cc(c3ccccc3c1)OCCCc1c(C(=O)O)n(C)c3c-2c(Cl)ccc13 [AZD5991] (first compound max 10 µM, 7x7, partner max 1 µM) , test system: NCI-H322M (Lung Adenocarcinoma).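 Also: after 72 h of two-drug dosing.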
[reply] -0.0174

[ask] Now try CC1(C)CCC(CN2CCN(c3ccc(C(=O)NS(=O)(=O)c4ccc(NCC5CCOCC5)c([N+](=O)[O-])c4)c(Oc4cnc5[nH]ccc5c4)c3)CC2)=C(c2ccc(Cl)cc2)C1 [Venetoclax] + CN(C)CCCOc1ccc(-c2ccc3ncc4c(c3c2)n(C2CCOCC2)c(=O)n4C)cn1 [AZD0156] (first compound max 1 µM, 7x7, partner max 1 µM) .
[reply] -0.0103

[ask] Now try COc1cccc(OCCCN)c1-c1cc(Nc2cnc(C#N)cn2)n[nH]1 [Prexasertib] + C[C@@H]1COCCN1C2=NC(=NC(=C2)C3(CC3)[S@](=N)(=O)C)C4=C5C=CNC5=NC=C4 [AZD6738] (first compound max 1 µM, 7x7, partner max 10 µM) .
[reply] -0.0367

[ask] Now try C[C@@H](c1ccc2nccn2c1)n1nnc2ncc(-c3cnn(C)c3)nc21 [Savolitinib] + Cc1c2c(nn1C)CSCc1cc(n(C)n1)CSc1cc(c3ccccc3c1)OCCCc1c(C(=O)O)n(C)c3c-2c(Cl)ccc13 [AZD5991] (first compound max 1 µM, 7x7, partner max 1 µM) .
[reply] -0.0638

[ask] Now try Cc1cc2ncnn2cc1Nc1ncc2c(n1)n(C1CCOCC1)c(=O)n2C [AZD7648] + CN(C)CCCOc1ccc(-c2ccc3ncc4c(c3c2)n(C2CCOCC2)c(=O)n4C)cn1 [AZD0156] (first compound max 10 µM, 7x7, partner max 1 µM) .
[reply] 0.0083

Give one value of Bliss excess per listed molecule.
1. CN(CCO)CC[C@H](CSc1ccccc1)Nc1ccc(S(=O)(=O)NC(=O)c2ccc(N3CCC([C@@H](O)c4ccccc4-c4ccc(Cl)cc4)CC3)cc2)cc1S(=O)(=O)C(F)(F)F [AZD4320] + C[C@@H]1COCCN1C2=NC(=NC(=C2)C3(CC3)[S@](=N)(=O)C)C4=C5C=CNC5=NC=C4 [AZD6738] (first compound max 1 µM, 7x7, partner max 10 µM)
2. Cc1c2c(nn1C)CSCc1cc(n(C)n1)CSc1cc(c3ccccc3c1)OCCCc1c(C(=O)O)n(C)c3c-2c(Cl)ccc13 [AZD5991] + C=CCn1c(=O)c2cnc(Nc3ccc(N4CCN(C)CC4)cc3)nc2n1-c1cccc(C(C)(C)O)n1 [AZD1775] (first compound max 1 µM, partner max 1 µM)
3. NC1(C(=O)N[C@@H](CCO)c2ccc(Cl)cc2)CCN(c2ncnc3[nH]ccc23)CC1 [Capivasertib] + COc1nnc2ccc(N3CCC(c4ccc(OCCN5CCN(C)C(=O)[C@H]5C)cc4)CC3)nn12 [AZD5153] (first compound max 10 µM, 7x7, partner max 1 µM)

[reply]
1: -0.0335; 2: -0.023; 3: -0.0144

All values here come from the supplement of paper PMC11061612.
